- Test system: Botulinum neurotoxin type F light chain protease (Clostridium botulinum)
- experiment-notes: BoNT/F light chain protease inhibitors, primary screen, biochemical, flow cytometry, MLPCN library (AID 588497); also: plate controls were buffer without enzyme for full effect and enzyme alone for no effect
- assay-setup: Multiplex microsphere protease cleavage assay, at 10 µM, hits give high values
Among all 360,000 compounds or so, about 780 (0.22%) were called active. Inconclusive results (about 4%) are left out. The entries come from a sample that favours actives as a whole.
readout-name: inhibition (%)
Write the answer as a number in %, unit excluded.

Solved entries (count: 3):
Cc1c(NC(=O)c2c([N+](=O)[O-])cnn2C)c(=O)n(-c2ccccc2)n1C
-13.3
Cc1c(NC(=O)c2cccnc2)c(=O)n(-c2ccccc2)n1C
58.9
CCCCCc1c(C)nc(N2CCN(Cc3ccc4c(c3)OCO4)CC2)[nH]c1=O
39.2

Task item: Entry Cc1cccc(-c2cnc(C(O)c3ccc4ccccc4c3)[nH]2)c1 (stereo not given) : reported inhibition = ?
Reply: -3.1

Task item: Entry COc1ccc(CC(N)c2csc(NC(=O)NC(c3ccccc3)c3ccccc3)n2)cc1 (stereo not given) : reported inhibition = ?
Reply: -27.6

---

- Tested on: Botulinum neurotoxin type F light chain protease (Clostridium botulinum)
- experiment-notes: BoNT/F light chain protease inhibitors, primary screen, biochemical, flow cytometry, MLPCN library (AID 588497)
- assay-setup: Multiplex microsphere protease cleavage assay, at 10 µM, hits give high values
Screen size: about 360,000 compounds; about 780 (0.22%) were called active. Another 4% or so got no clear call; they are omitted. The full list was thinned out, with actives kept by preference.
readout-name: inhibition (%)
Write the answer as a number in %, unit excluded.

Solved entries (count: 3):
CCOc1ccc(NC(=O)CC2NCCNC2=O)cc1 (stereo not given)
-3.7
O=C1NC[C@H](Cc2ccc(O)cc2)N(C[C@H]2CCCN2C[C@H](Cc2ccccc2)N2C[C@H](Cc3ccccc3)N(CCc3ccccc3)C(=O)C2=O)C1=O
-3.4
CCOc1ccc(NC(=O)CC(Cc2ccc(Cl)cc2)C(=O)O)cc1 (stereo not given)
42.9

Task item: Entry CC1(Oc2ccccc2-c2ccno2)CCN(Cc2ccc(-c3ccccc3)o2)C1 (stereo not given) : reported inhibition = ?
Reply: -11.5

Task item: Entry COc1ccc(C(c2nnnn2C2CCCC2)N2CCN(C/C=C/c3ccccc3)CC2)cc1 (stereo not given) : reported inhibition = ?
Reply: -6.6

---

- Test system: Botulinum neurotoxin type F light chain protease (Clostridium botulinum)
- experiment-notes: BoNT/F light chain protease inhibitors, primary screen, biochemical, flow cytometry, MLPCN library (AID 588497)
- assay-setup: Multiplex microsphere protease cleavage assay, at 10 µM, hits give high values
About 780 (0.22%) of roughly 360,000 compounds were called active. Roughly 4% stayed inconclusive and do not appear here. Many of the other results were omitted from the sample, so actives are more common in it than they were.
# maps each entry to its inhibition
Write the answer as a number in %, unit excluded.

Cc1cccnc1C(NC(=O)C1CCN(Cc2ccc(Cl)c(Cl)c2)CC1)c1ccc(Cl)cc1 (centres undefined)
-0.6
Cc1ccc2nc(-c3ccccc3)c(CC3CCCCC3)n2c1
-7.4
CC(=O)Nc1cc(-c2ccccc2F)cn2c(-c3cccc(C(F)(F)F)c3)cnc12
1.3
COc1ccc(/C=C/C(=O)c2c(O)cc(OC)cc2OC)cc1
-3.2
CCc1nc2c(OCc3ccc(Cl)cc3Cl)cccn2c1N(C)C(=O)C(C)C
-7.2
COc1ccc(CC(N)c2csc(NC(=O)Cc3ccccc3)n2)cc1 (centres undefined)
-9.3
COc1ccc(Cl)cc1-c1cc(C(=O)Nc2cc(OC)c(OC)c(OC)c2)[nH]n1
-0.6
CC(C)C[C@H]1CNC(=S)N1C[C@H]1CCCN1C[C@H](Cc1ccc(O)cc1)N1C[C@H](Cc2ccc(O)cc2)N(CC2CCCCC2)C1=S
-11

Next up:
Task item: Entry CC(C)C[C@H]1CNC(=O)C(=O)N1C[C@H]1CCCN1C[C@H](Cc1ccc(O)cc1)N1C[C@H](CC(C)C)N(CC2CCCCCC2)C(=O)C1=O : reported inhibition = ?
Reply: -9.5

---

- Test system: Botulinum neurotoxin type F light chain protease (Clostridium botulinum)
- experiment-notes: BoNT/F light chain protease inhibitors, primary screen, biochemical, flow cytometry, MLPCN library (AID 588497); also: plate controls were buffer without enzyme for full effect and enzyme alone for no effect
- assay-setup: Multiplex microsphere protease cleavage assay, at 10 µM, hits give high values
Hit rate of the full screen: of about 360,000 compounds, about 780 (0.22%) were called active. Roughly 4% stayed inconclusive and do not appear here. What follows is part of a selection rich in actives, with near analogues and random picks from the rest.
# maps each entry to its inhibition
Write the answer as a number in %, unit excluded.

Solved entries (count: 2):
COc1ccccc1NC(=O)C1CCCN(c2cc(C)nc3ncnn23)C1 (stereo not given)
4.8
C=CCN(CC=C)S(=O)(=O)c1ccc(C(=O)Nc2nc3c(s2)CCc2ccccc2-3)cc1
-8.2

Task item: Entry C=C1C(=O)[C@]23C[C@H]1CCC2[C@@]1(C)C(C[C@@H]3O)[C@](C)(C(=O)O)CC[C@@H]1O (stereo not given in full) : reported inhibition = ?
Reply: 6.7

Task item: Entry CN(Cc1cn(Cc2ccc(C(F)(F)F)cc2)nn1)C1CN(Cc2cn(Cc3ccc(C(F)(F)F)cc3)nn2)S(=O)(=O)C1 (stereo not given) : reported inhibition = ?
Reply: -10.7

Task item: Entry Cc1cc(-n2nc(C)cc2C)n2ncc(-c3ccccc3)c2n1 : reported inhibition = ?
Reply: 5.4

Task item: Entry O=C(c1snnc1-c1ccccc1)N1CCOCC1 : reported inhibition = ?
Reply: -9

Task item: Entry CC1CCc2c(sc3nc4n(c(=O)c23)CCS4)C1 (stereo not given) : reported inhibition = ?
Reply: 43.2

Task item: Entry CN1CCN(c2ccc(NC(=O)c3cc(Cl)c4c(c3)OCCO4)cc2)CC1 : reported inhibition = ?
Reply: -0.9

Task item: Entry Cc1ccc2[nH]c(=O)c(CN(CCCN(C)C)C(=O)Nc3cccc(Cl)c3)cc2c1 : reported inhibition = ?
Reply: 1

Task item: Entry CN1CCN(c2ccc(NC(=O)c3ccc4c(c3)[nH]c(=O)n4Cc3ccc(F)cc3)cc2)CC1 : reported inhibition = ?
Reply: -37.9

---

- System: Botulinum neurotoxin type F light chain protease (Clostridium botulinum)
- experiment-notes: BoNT/F light chain protease inhibitors, primary screen, biochemical, flow cytometry, MLPCN library (AID 588497); also: plate controls were buffer without enzyme for full effect and enzyme alone for no effect
- assay-setup: Multiplex microsphere protease cleavage assay, at 10 µM, hits give high values
Screen size: about 360,000 compounds; about 780 (0.22%) were called active. About 4% were inconclusive and are not listed. What follows is part of a selection rich in actives, with near analogues and random picks from the rest.
readout-name: inhibition (%)
Write the answer as a number in %, unit excluded.

Cc1ccc2[nH]cc(CCNC(=O)c3ccc([N+](=O)[O-])cc3)c2c1
-0.3

Task item: API: value(readout= inhibition, system= Botulinum neurotoxin type F light chain protease (Clostridium botulinum), query= CC1=C(C(=O)N(C(C)C)C(C)C)CC(CC(=O)NCC2CCCCC2)C(=O)N1Cc1ccccc1 (stereo not given) )
Reply: -6.1

Task item: API: value(readout= inhibition, system= Botulinum neurotoxin type F light chain protease (Clostridium botulinum), query= Cc1ccc2[nH]cc(CCNC(=O)C3CCCCC3)c2c1 )
Reply: 50

Task item: API: value(readout= inhibition, system= Botulinum neurotoxin type F light chain protease (Clostridium botulinum), query= CCCCC[C@H](C)N1C[C@@H](COCc2ccccc2)Oc2cc(N3CC[C@@H](N(C)C)C3)ccc2S1(=O)=O )
Reply: -14

Task item: API: value(readout= inhibition, system= Botulinum neurotoxin type F light chain protease (Clostridium botulinum), query= CC1(Cc2ccccc2C#N)C(=O)Nc2ccc(-c3ccc4[nH]ccc4c3)cc21 (stereo not given) )
Reply: -3.4

Task item: API: value(readout= inhibition, system= Botulinum neurotoxin type F light chain protease (Clostridium botulinum), query= CCCCC(=O)N(C)c1c(CC)nc2c(OCc3ccc(Cl)cc3Cl)cccn12 )
Reply: -1.2

Task item: API: value(readout= inhibition, system= Botulinum neurotoxin type F light chain protease (Clostridium botulinum), query= O=C(NCCc1c[nH]c2ccccc12)C1CCN(Cc2ccc(Br)cc2)CC1 )
Reply: -27.7

Task item: API: value(readout= inhibition, system= Botulinum neurotoxin type F light chain protease (Clostridium botulinum), query= CCn1cc(C(=O)N2CCN(C3CCCCC3)CC2)c2cc(OC)c(OC)cc2c1=O )
Reply: 35

Task item: API: value(readout= inhibition, system= Botulinum neurotoxin type F light chain protease (Clostridium botulinum), query= Cc1ccc(C(=O)COc2cccc(NC(=O)c3ccco3)c2)cc1 )
Reply: 44.6

Task item: API: value(readout= inhibition, system= Botulinum neurotoxin type F light chain protease (Clostridium botulinum), query= COc1cc(C(=O)N2CCN(C3CCC(C)CC3)CC2)cc(OC)c1OC (stereo not given) )
Reply: -2.2

---

# maps each entry to its inhibition
- Test system: Botulinum neurotoxin type F light chain protease (Clostridium botulinum)
- experiment-notes: BoNT/F light chain protease inhibitors, primary screen, biochemical, flow cytometry, MLPCN library (AID 588497); also: plate controls were buffer without enzyme for full effect and enzyme alone for no effect
- assay-setup: Multiplex microsphere protease cleavage assay, at 10 µM, hits give high values
In all, about 360,000 compounds went through this assay and about 780 (0.22%) were called active. Not shown: some 4% with an inconclusive outcome. For the sample, actives were picked, then their nearest neighbours and some compounds at random.
Write the answer as a number in %, unit excluded.

Solved entries (count: 6):
COC(=O)C[n+]1cccc2ccccc21
10
CC(=O)N1Cc2cc(C(=O)NCc3cccc(F)c3)nc(-c3cccc(C4=CCCCC4)c3)c2[C@H]1CCO
-0.7
O=C(CC[C@H]1O[C@@H](n2ccc(=O)[nH]c2=O)[C@H](O)[C@@H]1O)N[C@H](Cc1ccccc1)C(=O)NCCCN1CCCC1=O
1.4
OC(c1ccc(Cl)c(F)c1)c1ncc(-c2ccccc2Cl)[nH]1 (stereo not drawn)
-8.1
NC(Cc1ccccc1)c1csc(Nc2cc(Oc3ccccc3)ncn2)n1 (stereo not drawn)
-21.7
Cc1cc(Cl)ccc1-c1nc(NCCN(C)C)nc2ccsc12
-4.9

Task item: Entry CC(=O)Oc1ccc(NC(=O)CCC2CCCCC2)c(C(=O)O)c1 : reported inhibition = ?
Reply: 37.7

Task item: Entry NC(c1csc(NC(=O)Nc2ccccc2Oc2ccccc2)n1)c1ccccc1Cl (stereo not drawn) : reported inhibition = ?
Reply: -12.1

Task item: Entry CN(C(=O)c1ccccn1)c1nnc(-c2ccccn2)s1 : reported inhibition = ?
Reply: 40.4

Task item: Entry CC(=O)Nc1cc(-c2ccccc2N(C)C)cn2c(-c3ccc(F)c(Cl)c3)cnc12 : reported inhibition = ?
Reply: -0.7

Task item: Entry NCCCNC(=S)NCCCN(Cc1ccc(Cl)cc1)c1ccc(Br)cn1 : reported inhibition = ?
Reply: -47.9

Task item: Entry COc1ccc(-c2cc(NC=O)c3ncc(-c4cc(OC)c(OC)c(OC)c4)n3c2)c(OC)c1 : reported inhibition = ?
Reply: -7.7

Task item: Entry CC(=O)c1cccc(NC(=O)N2CCCC2C(=O)NCCc2ccccc2)c1 (stereo not drawn) : reported inhibition = ?
Reply: 35.3
